// provenance: ChEMBL document CHEMBL4028848

assay: Half life in fasting human at 10 mg, po administered as single dose; assay type: ADME, organism-based; conditions: in vivo
Below, each entry is listed alongside its reported half-life.
Give the quantity in h, number only.

Cn1c([S+](C)[O-])nc(-c2ccc(F)cc2)c1-c1ccnc(N)c1 (configuration not stated)	11.3

Next:
## Task Query: half-life; subject: CC(=O)Nc1cc(-c2c(-c3ccc(F)cc3)nc([S+](C)[O-])n2C)ccn1 (configuration not stated)
## Result 2.8

---

assay: Cmax in human at 50 mg, po administered as single dose; assay type: ADME, organism-based; design: dose 50 mg, route oral; conditions: in vivo
Below, each entry is listed alongside its reported Cmax.
Give the quantity in nM, number only.

CC(=O)Nc1cc(-c2c(-c3ccc(F)cc3)nc([S+](C)[O-])n2C)ccn1 (configuration not stated)	590

Next:
## Task Query: Cmax; subject: Cn1c([S+](C)[O-])nc(-c2ccc(F)cc2)c1-c1ccnc(N)c1 (configuration not stated)
## Result 600

---

Below, each entry is listed alongside its reported inhibition at 10 µM.
biological target: CYP2C9 (Homo sapiens); experiment: Inhibition of CYP2C9 (unknown origin) at 10 uM by fluorimetric assay relative to control; type: ADME
Sequence (P11712 whole entry): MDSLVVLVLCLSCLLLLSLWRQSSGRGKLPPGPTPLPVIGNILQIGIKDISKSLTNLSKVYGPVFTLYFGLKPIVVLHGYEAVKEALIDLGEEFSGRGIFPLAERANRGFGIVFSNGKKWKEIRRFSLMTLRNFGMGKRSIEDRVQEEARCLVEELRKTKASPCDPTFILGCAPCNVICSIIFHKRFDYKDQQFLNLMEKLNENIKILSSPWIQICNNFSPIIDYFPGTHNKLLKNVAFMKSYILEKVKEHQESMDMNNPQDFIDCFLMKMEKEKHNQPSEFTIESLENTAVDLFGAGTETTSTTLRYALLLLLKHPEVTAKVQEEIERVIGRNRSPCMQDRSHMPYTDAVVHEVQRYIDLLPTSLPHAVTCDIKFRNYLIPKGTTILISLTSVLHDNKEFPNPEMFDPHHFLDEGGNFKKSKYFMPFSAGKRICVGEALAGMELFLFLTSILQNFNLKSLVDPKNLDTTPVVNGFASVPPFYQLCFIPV
Give the quantity in %, number only.

CSc1nc(-c2ccc(F)cc2)c(-c2ccnc(Nc3ccccc3)c2)[nH]1	60

## Task Query: inhibition at 10 µM; subject: `CSc1nc(-c2ccc(F)cc2)c(-c2ccnc(NC(C)=O)c2)n1C`
## Result 46

---

experiment: Tmax in male Sprague-Dawley rat at 30 mg/kg, po by LC-MS/MS analysis; assay type: ADME, organism-based; conditions: in vivo
MEASUREMENT_KIND: Tmax (min)
Give the quantity in min, number only.

## Task Query: Tmax; subject: CC(=O)Nc1cc(-c2c(-c3ccc(F)cc3)nc([S+](C)[O-])n2C)ccn1 (stereo unspecified)
## Result 30

---

assay: AUC (0 to t) in human at 50 mg, po administered as single dose; format: ADME, organism-based; conditions: in vivo
MEASUREMENT_KIND: AUC(0-t) (µM·h)
Give the quantity in µM·h, number only.

Cn1c([S+](C)[O-])nc(-c2ccc(F)cc2)c1-c1ccnc(N)c1 (configuration not stated)	8.73

Next:
## Task Query: AUC(0-t); subject: CC(=O)Nc1cc(-c2c(-c3ccc(F)cc3)nc([S+](C)[O-])n2C)ccn1 (configuration not stated)
## Result 3.4

---

assay: AUC (0 to t) in mongrel dog at 30 mg/kg, po by LC-MS/MS analysis; format: ADME, organism-based, Canis lupus familiaris; details: in vivo
MEASUREMENT_KIND: AUC(0-t)
Please format your answer as a value with the unit trailing.

## Task Query: AUC(0-t); subject: CC(=O)Nc1cc(-c2c(-c3ccc(F)cc3)nc([S+](C)[O-])n2C)ccn1 (stereo unspecified)
## Result 95 µM·h

---

Here's a batch of compounds along with measured IC50 for 3',5'-cyclic-AMP phosphodiesterase 4A (Homo sapiens, UniProt P27815).
Give the quantity in µM, number only.

CC(=O)Nc1cc(-c2c(-c3ccc(F)cc3)nc([S+](C)[O-])n2C)ccn1 (configuration not stated)	2.9

Next:
## Task Query: IC50; subject: Cn1c([S+](C)[O-])nc(-c2ccc(F)cc2)c1-c1ccnc(N)c1 (configuration not stated)
## Result 9.9
